Numbers sourced from patent US20220242950A1.

Molecular target: T1, human IL1RAP on the cell surface (human, UniProt Q9NPH3 21-570)
T1 sequence (looked up): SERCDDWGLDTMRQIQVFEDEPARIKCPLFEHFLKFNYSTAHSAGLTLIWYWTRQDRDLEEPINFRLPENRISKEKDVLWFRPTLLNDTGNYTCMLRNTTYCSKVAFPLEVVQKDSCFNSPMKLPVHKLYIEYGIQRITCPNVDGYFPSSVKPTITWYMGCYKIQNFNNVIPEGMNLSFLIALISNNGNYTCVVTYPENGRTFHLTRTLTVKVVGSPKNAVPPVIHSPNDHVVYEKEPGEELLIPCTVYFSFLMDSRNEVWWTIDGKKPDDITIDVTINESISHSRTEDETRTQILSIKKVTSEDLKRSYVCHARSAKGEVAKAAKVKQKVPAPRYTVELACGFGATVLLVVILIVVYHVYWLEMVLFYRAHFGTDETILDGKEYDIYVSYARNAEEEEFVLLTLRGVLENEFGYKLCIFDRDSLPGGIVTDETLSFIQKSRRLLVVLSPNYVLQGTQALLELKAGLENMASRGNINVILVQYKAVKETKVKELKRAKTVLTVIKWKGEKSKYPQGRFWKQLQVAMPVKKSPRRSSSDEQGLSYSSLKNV
Assay: cell-based or functional assay
Criterion: IC50 of IL-1β signaling (HEK-Blue assay) strictly under 4 nM. Met: Condition met. Not met: Condition not met.

Lookup: Determine whether this binder shows IC50 of IL-1β signaling (HEK-Blue assay) lower than 4 nM (ties excluded): h48D2 VH1:VL3 (antibody, human IgG1, kappa, L234A L235A, V domains shown, Humanized; also called VL3:VH1) VH: EVQLEESGGGLVKPGGSLRLSCAASGPSLSHFDITWVRQAPGKGLEWVSTISPGVSTYYASWAKSRFTISRDNSKNTLYLQMNSLRAEDTAVYYCARGGVGSSWKAFDLWGRGTLVTVSS VL: DILLTQTPSVVSASVGDRVTITCQASESISTALAWYQQKPGQAPRLLIYKASTLPSGVPSRFRGSGSGTDFTLTITSLQPEDFATYYCQQGFSSGNVHNAFGGGTRLEIKR
Found: Condition not met

Lookup: Determine whether this binder shows IC50 of IL-1β signaling (HEK-Blue assay) lower than 4 nM (ties excluded): h48D2 VH3:VL3 (antibody, human IgG1, kappa, L234A L235A, V domains shown, Humanized; also called VL3:VH3) VH: EVQLLESGGGLVLPGGSLRLSCAASGPSLSHFDITWVRQAPGKGLEWVSTISPGVSTYYASWAKSRFTISRDNSKNTLYLQMSSLRAEDTAVYYCARGGVGSSWKAFDLWGLGTTVTVSS VL: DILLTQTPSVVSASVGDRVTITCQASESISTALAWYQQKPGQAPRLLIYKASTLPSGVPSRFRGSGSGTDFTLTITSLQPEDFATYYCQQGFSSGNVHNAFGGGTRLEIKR
Found: Condition not met

Lookup: Determine whether this binder shows IC50 of IL-1β signaling (HEK-Blue assay) lower than 4 nM (ties excluded): h48D2 VH2:VL5 (antibody, human IgG1, kappa, L234A L235A, V domains shown, Humanized; also called VL5:VH2) VH: EVQLVESGGALVQPGGSLRLSCIVSGPSLSHFDITWFRQAPGKGLEWVATISPGVSTYYASWAKSRFTISTDTSKNTLFLQMDSLRAEDTAVYYCARGGVGSSWKAFDLWGPGTLVTVSS VL: APVLTQSPATLEASVGDRVTITCQASESISTALAWYQQKPGQPPKLLIYKASTLPSGVPSRFSGSGSGTEFTLTISDLESDDAATYYCQQGFSSGNVHNAFGGGTEVVVKR
Found: Condition not met

Lookup: Determine whether this binder shows IC50 of IL-1β signaling (HEK-Blue assay) lower than 4 nM (ties excluded): h48D2 VH1:VL2 (antibody, human IgG1, kappa, L234A L235A, V domains shown, Humanized; also called VL2:VH1) VH: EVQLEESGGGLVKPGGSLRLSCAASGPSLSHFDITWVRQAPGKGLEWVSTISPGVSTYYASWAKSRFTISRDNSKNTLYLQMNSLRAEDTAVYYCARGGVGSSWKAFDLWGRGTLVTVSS VL: QIVLTQSPATLSASVGDRVTITCQASESISTALAWYQQKPGKAPKLLIYKASTLPSGVPSRFSGSGSGTEFTLTISSLQPDDSATYYCQQGFSSGNVHNAFGQGTKLEIKR
Found: Condition not met

Lookup: Determine whether this binder shows IC50 of IL-1β signaling (HEK-Blue assay) lower than 4 nM (ties excluded): h48D2 VH2:VL3 (antibody, human IgG1, kappa, L234A L235A, V domains shown, Humanized; also called VL3:VH2) VH: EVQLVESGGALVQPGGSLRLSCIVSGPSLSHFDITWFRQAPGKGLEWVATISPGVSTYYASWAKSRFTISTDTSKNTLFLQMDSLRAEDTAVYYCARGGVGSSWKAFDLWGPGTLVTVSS VL: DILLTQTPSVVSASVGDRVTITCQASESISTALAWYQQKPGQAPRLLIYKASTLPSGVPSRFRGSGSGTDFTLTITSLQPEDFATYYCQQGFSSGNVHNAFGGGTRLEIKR
Found: Condition met

Lookup: Determine whether this binder shows IC50 of IL-1β signaling (HEK-Blue assay) lower than 4 nM (ties excluded): h48D2 VH3:VL4 (antibody, human IgG1, kappa, L234A L235A, V domains shown, Humanized; also called VL4:VH3) VH: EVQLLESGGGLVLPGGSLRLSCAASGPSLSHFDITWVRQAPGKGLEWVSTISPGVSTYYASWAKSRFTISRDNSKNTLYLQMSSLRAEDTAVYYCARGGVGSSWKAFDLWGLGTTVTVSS VL: ELVMTQSPSSVSASVGDRVTITCQASESISTALAWYQQKPGKAPKLLIYKASTLPSGVPSRFSGSGSGTDFTLTINSLQPEDFATYYCQQGFSSGNVHNAFGGGTKVEIKR
Found: Condition not met

Lookup: Determine whether this binder shows IC50 of IL-1β signaling (HEK-Blue assay) lower than 4 nM (ties excluded): h48D2 VH4:VL5 (antibody, human IgG1, kappa, L234A L235A, V domains shown, Humanized; also called VL5:VH4) VH: QVQLQESGPGLVKPSETLSLTCTVSGPSLSHFDITWIRQPPGKGLEWIGTISPGVSTYYASWAKSRFTISVDTSKNQFSLKLTSVTAADTATYYCARGGVGSSWKAFDLWGPGTLVTVSS VL: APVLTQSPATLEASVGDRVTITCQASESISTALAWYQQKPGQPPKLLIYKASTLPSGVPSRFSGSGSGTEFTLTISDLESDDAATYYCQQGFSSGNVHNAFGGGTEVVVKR
Found: Condition met

Lookup: Determine whether this binder shows IC50 of IL-1β signaling (HEK-Blue assay) lower than 4 nM (ties excluded): h48D2 VH4:VL1 (antibody, human IgG1, kappa, L234A L235A, V domains shown, Humanized; also called VL1:VH4) VH: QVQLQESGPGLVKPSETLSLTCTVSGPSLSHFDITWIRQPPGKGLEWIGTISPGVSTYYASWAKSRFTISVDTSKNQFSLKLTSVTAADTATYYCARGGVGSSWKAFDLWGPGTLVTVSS VL: DIVMTQSPSSLSASVGDRVTITCQASESISTALAWYQQKPGKAPKLLIYKASTLPSGVPSRFSGSGSGTDFTLTISSLQPEDFATYYCQQGFSSGNVHNAFGGGTKVVIKR
Found: Condition met

Lookup: Determine whether this binder shows IC50 of IL-1β signaling (HEK-Blue assay) lower than 4 nM (ties excluded): h48D2 VH2:VL1 (antibody, human IgG1, kappa, L234A L235A, V domains shown, Humanized; also called VL1:VH2) VH: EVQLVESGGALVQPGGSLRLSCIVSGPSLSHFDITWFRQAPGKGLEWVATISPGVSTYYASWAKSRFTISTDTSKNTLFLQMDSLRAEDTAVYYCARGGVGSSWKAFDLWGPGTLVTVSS VL: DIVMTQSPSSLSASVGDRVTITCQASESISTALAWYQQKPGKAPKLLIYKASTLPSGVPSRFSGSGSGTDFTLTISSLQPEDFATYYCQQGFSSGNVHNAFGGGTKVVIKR
Found: Condition met

Lookup: Determine whether this binder shows IC50 of IL-1β signaling (HEK-Blue assay) lower than 4 nM (ties excluded): h48D2 VH1:VL1 (antibody, human IgG1, kappa, L234A L235A, V domains shown, Humanized; also called VL1:VH1) VH: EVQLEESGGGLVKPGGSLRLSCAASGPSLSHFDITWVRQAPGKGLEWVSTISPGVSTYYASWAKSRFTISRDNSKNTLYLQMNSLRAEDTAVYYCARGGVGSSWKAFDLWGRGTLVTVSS VL: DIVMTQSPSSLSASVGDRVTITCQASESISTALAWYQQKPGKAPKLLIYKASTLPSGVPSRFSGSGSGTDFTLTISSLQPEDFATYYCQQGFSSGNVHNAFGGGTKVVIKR
Found: Condition not met
